Provenance of the data: the supplement of paper PMC13380429

- System: Vero E6 infected with SARS-CoV-2
- assay protocol: inhibition of SARS-CoV-2 cytopathic effect; higher = more antiviral protection, active = above 15
- condition summary: 10000 nM; 48 h
compounds and their reported inhibition of SARS-CoV-2 cytopathic effect
Response body: numeric value in %, unit text excluded.

As a guide, the following entries are already answered.
Cc1cn2nc([C@@H]3CCCCN3C(=O)c3cc(Cl)ccc3NS(C)(=O)=O)cc2nc1N1CC[C@H](N)C1 | -4.09
CNC(=O)c1cc(COc2nnc(Nc3ccc(Cl)cc3)c3ccoc23)ccn1 | 0.53
COc1ccc(NC(=O)c2ccc(C(=N)N(C)C)cc2)c(C(=O)Nc2ccc(Cl)cn2)c1 | -3.48

Now examine the next entry.
Req: Please report the recorded inhibition of SARS-CoV-2 cytopathic effect for C[C@]12C=CC(=O)C=C1CC[C@@H]1[C@@H]2[C@@H](O)C[C@@]2(C)[C@H]1CC[C@]2(O)C(=O)COP(=O)(O)O [prednisolone-sodium-phosphate] .
Resp: -4.78

----------
- Tested on: Vero E6 infected with SARS-CoV-2
- assay protocol: inhibition of SARS-CoV-2 cytopathic effect; higher = more antiviral protection, active = above 15
- condition summary: 10000 nM; 48 h
Reply using exactly one outcome from Y (active), N (inactive)

As a guide, the following entries are already answered.
O=C(NCC1CCOCC1)c1cnc(Nc2ccc(Cl)cc2Cl)nc1C(F)(F)F | N
COc1cc(/C=C(\C#N)C(N)=O)cc(CSc2nc3ccccc3s2)c1O | N
CC[C@H]1OC(=O)[C@H](C)C(=O)[C@H](C)[C@@H](O[C@@H]2O[C@H](C)C[C@H](N(C)C)[C@H]2O)[C@](C)(OC)C[C@@H](C)C(=O)[C@H](C)[C@H]2N(CCCCn3cnc(-c4cccnc4)c3)C(=O)O[C@]12C | N
Fc1ccccc1-c1nc2ccn(Cc3ccc(-c4ccc(C(F)(F)F)cc4C(F)(F)F)nn3)cc-2n1 | N
C[C@H](NCc1ccc(OCc2cccc(F)c2)cc1)C(N)=O [safinamide] | N

Req: Look up the recorded call for `C[C@@H](N)Cc1c[nH]c2ccc(O)cc12` in this test.
Resp: N

Req: Look up the recorded call for `CC1=C(/C=C/C(=C/C=C/C(C)=C/C(=O)O)c2ccc(C)cc2)C(C)(C)CCC1` in this test.
Resp: N

Req: Look up the recorded call for `Cc1nnc2n1-c1sc(CCC(=O)N3CCOCC3)cc1C(c1ccccc1Cl)=NC2` in this test.
Resp: Y

Req: Look up the recorded call for C[C@]12CCC(=O)C=C1C=C[C@@H]1[C@@H]2CC[C@@]2(C)[C@H]1CC[C@@]2(O)CCC(=O)O [potassium-canrenoate] in this test.
Resp: N

Req: Look up the recorded call for COC(=O)c1cc(OC)c2c(c1-c1c(C(=O)OC)cc(OC)c3c1OCO3)OCO2 [bifendate] in this test.
Resp: N

Req: Look up the recorded call for `COc1cc(C(=O)N2CCOCC2)cc(OC)c1OC` in this test.
Resp: N

Req: Look up the recorded call for CCC(NC(C)C)C(O)c1ccc(O)c(O)c1 (centres undefined) in this test.
Resp: N

Req: Look up the recorded call for CN(C)CCOC(=O)COc1ccc(Cl)cc1 [meclofenoxate] in this test.
Resp: N

Req: Look up the recorded call for `CC(C)C[C@H](NC(=O)[C@@H](Cc1c[nH]c2ccccc12)NC(=O)[C@H](Cc1ccc(O)cc1)NC(=O)[C@H](CO)NC(=O)[C@H](Cc1c[nH]c2ccccc12)NC(=O)[C@H](Cc1c[nH]cn1)NC(=O)[C@@H]1CCC(=O)N1)C(=O)N[C@@H](CCCNC(=N)N)C(=O)N1CCC[C@H]1C(=O)NCC(N)=O` in this test.
Resp: N

Req: Look up the recorded call for `N#Cc1c(Oc2ccc(F)c(NC(=O)Cc3cccc(C(F)(F)F)c3)c2)ccc2nc(NC(=O)C3CC3)sc12` in this test.
Resp: N

Req: Look up the recorded call for `CCN(CC)CCOC(=O)C1(C2CCCCC2)CCCCC1` in this test.
Resp: N
